B1: Cyclin-F, residues 28 to 80; numbered along this chain, P41002 (parent)
chain: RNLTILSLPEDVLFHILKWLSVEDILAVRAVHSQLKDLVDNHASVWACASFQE

Variants of: B1
method-description: abundance fitness (aPCA) (normalised: wild type 0, dead -1); higher = more abundant; growth selection in yeast, the domain comes from the species named
setup-conditions: Homo sapiens
endpoint: abundance fitness
Numbers only.

Some entries whose results are on file:
>  <sequence-entry>
RNLTILSLPEDVLFHLLKWLSVEDILAVRAVHSQLKDLVDNHASVWACASFQE

>  <abundance fitness>
-0.646

$$$$
>  <sequence-entry>
RNLTILSLPEDVLFHILKWLSVEDILAVRAVHSQLKDLVDNHASVWACASKQE

>  <abundance fitness>
-0.202

$$$$
>  <sequence-entry>
GNLTILSLPEDVLFHILKWLSVEDILAVRAVHSQLKDLVDNHASVWACASFQE

>  <abundance fitness>
-0.193

$$$$
>  <sequence-entry>
RNLTILSLPEDVLFHILKWLSVEDILAIRAVHSQLKDLVDNHASVWACASFQE

>  <abundance fitness>
-0.184

$$$$
>  <sequence-entry>
RNLTILSLPEDVLFHILKWLSVEDILAVRAVHSQLKDLVDNHASVWACASFQQ

>  <abundance fitness>
-0.051

$$$$
>  <sequence-entry>
RNLTILSLPEDVLFHILKWLSVEDILAVRAVHSQLSDLVDNHASVWACASFQE

>  <abundance fitness>
-0.788

$$$$
>  <sequence-entry>
RNLTILSLPEDVLFHILKWLSVEDILAVRAVHSQLKDLVDNHASVGACASFQE

>  <abundance fitness>
-0.065

$$$$
>  <sequence-entry>
RNLTILSLPEDVLFHILKWLIVEDILAVRAVHSQLKDLVDNHASVWACASFQE

>  <abundance fitness>
-0.405

$$$$
>  <sequence-entry>
RNLTILSLPEDVLFHILKWLSVEDILAHRAVHSQLKDLVDNHASVWACASFQE

>  <abundance fitness>
-0.372

$$$$
>  <sequence-entry>
RNLTILSLPEDLLFHILKWLSVEDILAVRAVHSQLKDLVDNHASVWACASFQE

>  <abundance fitness>
-0.281

$$$$

Hey, quick one: what's abundance fitness for each of these?
1. RNLTILSLPEDVLFHILKWLKVEDILAVRAVHSQLKDLVDNHASVWACASFQE
2. RNLTILSLPEDVLFHILKWLSVEDILAVRAVHSQLKDLVDNHCSVWACASFQE
3. RNLTILSLPEDVLFHIAKWLSVEDILAVRAVHSQLKDLVDNHASVWACASFQE
4. RNLTILSLPEDVLFHILKWLSVVDILAVRAVHSQLKDLVDNHASVWACASFQE

1: -0.272; 2: -0.006; 3: -0.781; 4: -0.372

Hey, quick one: what's abundance fitness for each of these?
1. RNLTILSLPEDVLFHILKWLSVEDILAVRAVHSQLKDLVENHASVWACASFQE
2. VNLTILSLPEDVLFHILKWLSVEDILAVRAVHSQLKDLVDNHASVWACASFQE
3. RNLTILSRPEDVLFHILKWLSVEDILAVRAVHSQLKDLVDNHASVWACASFQE
4. RALTILSLPEDVLFHILKWLSVEDILAVRAVHSQLKDLVDNHASVWACASFQE
5. RNLTILSLPEDVLFHILKWLSVEDILAVRAVHSQLKDLVDNHASVWACASFEE

1. -0.684
2. -0.465
3. -0.833
4. -0.492
5. -0.39

Hey, quick one: what's abundance fitness for each of these?
1. RNLTILSLPEDVLFHILKWLSVEDILAVRAVHSQLKDLVDNHASVQACASFQE
2. RNLTILSLPEDVLFHILKWLSVEDILAVRAVHSQLKDLVDNHASVVACASFQE
3. RNLTILSLYEDVLFHILKWLSVEDILAVRAVHSQLKDLVDNHASVWACASFQE

-0.136
-0.415
-0.932

// data source = the Human Domainome abundance scans (Beltran et al. 2025)
